Origin of the recorded values: the RepoRT retention time repository (doi:10.1016/j.chroma.2015.11.014)

test_name: RP, Agilent ZORBAX Eclipse Plus C18, 150 × 2.1 mm, 3.5 µm, 40 °C, 0.3 mL/min, estimated dead time 1.1 min; A: water + 0.1% formic acid; B: acetonitrile + 0.1% formic acid; gradient (min/%B) 0/2 1/2 2/20 16.5/98 22/98
recorded_conditions: stereoisomer not certain
endpoint: LC retention time (min)

These recorded examples may help you get a feel for the data.
>>> result_number("c1ccc(CNCc2ccccc2)cc1")
6
>>> result_number("O=S(=O)(O)c1nc2ccccc2s1")
6.5
>>> result_number("CC(C)(C)P(=O)(O)O")
4.63

a = c1ncc2[nH]cnc2n1
b = Nc1ccc(S(=O)(=O)Nc2ncccn2)cc1
Challenge: Recorded LC retention time values differ for a and b ; which one is higher? Please identify the chosen entry by its label.
Response given: b
(b: 5.24 min, a: 2.57 min)

###

test_name: RP, Agilent ZORBAX Eclipse Plus C18, 150 × 2.1 mm, 3.5 µm, 40 °C, 0.3 mL/min, estimated dead time 1.1 min; A: water + 0.1% formic acid; B: acetonitrile + 0.1% formic acid; gradient (min/%B) 0/2 1/2 2/20 16.5/98 22/98
recorded_conditions: stereoisomer not certain
endpoint: LC retention time (min)

>>> result_number("Cc1cc(C2CCCCC2)n(O)c(=O)c1")
4.49
>>> result_number("CCC(C)C(=O)OC1CC(O)C=C2C=CC(C)C(CCC(O)CC(O)CC(=O)O)C21 (stereo not drawn)")
8.64

I = CCCCCCCCCCCCCCCC[N+](C)(C)Cc1ccccc1
II = CCC1OC(=O)CC(O)C(C)C(OC2OC(C)C(OC3CC(C)(O)C(O)C(C)O3)C(N(C)C)C2O)C(CC=O)CC(C)C(=O)C=CC(C)=CC1COC1OC(C)C(O)C(OC)C1OC (stereo not drawn)
III = NC(=O)c1ccc[n+](C2OC(COP(=O)(O)OP(=O)([O-])OCC3OC(n4cnc5c(N)ncnc54)C(O)C3O)C(O)C2O)c1 (stereo not drawn)
IV = CC1(C)CCCC(C)(C)N1
Challenge: Rank the 4 compounds: largest LC retention time first, smallest last. Form entry: labels listed in requested order.
Response given: I, II, IV, III

###

test_name: RP, Agilent ZORBAX Eclipse Plus C18, 150 × 2.1 mm, 3.5 µm, 40 °C, 0.3 mL/min, estimated dead time 1.1 min; A: water + 0.1% formic acid; B: acetonitrile + 0.1% formic acid; gradient (min/%B) 0/2 1/2 2/20 16.5/98 22/98
recorded_conditions: stereoisomer not certain
endpoint: LC retention time (min)

These recorded examples may help you get a feel for the data.
>>> result_number("C#CC[P+](c1ccccc1)(c1ccccc1)c1ccccc1")
7.93
>>> result_number("Cc1cccc(N(C)C(=S)Oc2ccc3ccccc3c2)c1")
15.5
>>> result_number("CC(=O)Nc1cc(N)cc(C(=O)O)c1")
4.46

A = O=c1[nH]c2ccccc2s1
B = CC(C)c1nc(CN(C)C(=O)NC(C(=O)NC(Cc2ccccc2)CC(O)C(Cc2ccccc2)NC(=O)OCc2cncs2)C(C)C)cs1 (stereo not given)
Challenge: Returns the identifier with the smallest measured LC retention time among A and B . Please identify the chosen entry by its label.
Response given: A
(A: 7.78 min, B: 12.7 min)

###

test_name: RP, Agilent ZORBAX Eclipse Plus C18, 150 × 2.1 mm, 3.5 µm, 40 °C, 0.3 mL/min, estimated dead time 1.1 min; A: water + 0.1% formic acid; B: acetonitrile + 0.1% formic acid; gradient (min/%B) 0/2 1/2 2/20 16.5/98 22/98
recorded_conditions: stereoisomer not certain
endpoint: LC retention time (min)

These recorded examples may help you get a feel for the data.
>>> result_number("CNCC(c1ccc(O)cc1)C1(O)CCCCC1 (centres undefined)")
5.66
>>> result_number("COc1cc2c(cc1OC)C(=O)C(CC1CCN(Cc3ccccc3)CC1)C2 (centres undefined)")
7.43
>>> result_number("COc1ccc(C(=O)c2ccccc2)c(O)c1")
13.5
>>> result_number("CCCCCCCCCCCCOCC[N+](C)(C)Cc1ccccc1")
12.7
>>> result_number("COCCN(C(=O)CS(=O)(=O)O)c1c(C)cccc1C")
6.76

a = O=C1OC2(c3ccc(O)cc3Oc3cc(O)ccc32)c2ccccc21
b = CN(C)N=Nc1nc[nH]c1C(N)=O
c = CC(O)CCCCn1c(=O)c2c(ncn2C)n(C)c1=O (centres undefined)
Challenge: Would you mind ranking these molecules by ascending LC retention time? Form entry: labels listed in requested order.
Response given: b, c, a

###

test_name: RP, Agilent ZORBAX Eclipse Plus C18, 150 × 2.1 mm, 3.5 µm, 40 °C, 0.3 mL/min, estimated dead time 1.1 min; A: water + 0.1% formic acid; B: acetonitrile + 0.1% formic acid; gradient (min/%B) 0/2 1/2 2/20 16.5/98 22/98
recorded_conditions: stereoisomer not certain
endpoint: LC retention time (min)

I = Cn1c(=O)c2ncn(C)c2n(C)c1=O
II = O=S(=O)(O)c1ccc2ccccc2c1
III = CCOC(=O)c1ccc(O)c([N+](=O)[O-])c1
Challenge: Sort the list above on LC retention time in ascending fashion. Form entry: labels listed in requested order.
Response given: I, II, III
(I: 4.73 min, II: 7.09 min, III: 10.7 min)

A = O=C(CO)Nc1ccccc1
B = COC(=O)c1ccc(CNS(C)(=O)=O)cc1S(=O)(=O)NC(=O)Nc1nc(OC)cc(OC)n1
Challenge: Recorded LC retention time values differ for A and B ; which one is higher? Please identify the chosen entry by its label.
Response given: B

###

test_name: RP, Agilent ZORBAX Eclipse Plus C18, 150 × 2.1 mm, 3.5 µm, 40 °C, 0.3 mL/min, estimated dead time 1.1 min; A: water + 0.1% formic acid; B: acetonitrile + 0.1% formic acid; gradient (min/%B) 0/2 1/2 2/20 16.5/98 22/98
recorded_conditions: stereoisomer not certain
endpoint: LC retention time (min)

>>> result_number("CC(=O)C1(O)CCC2C3CCC4=CC(=O)CCC4(C)C3CCC21C (stereo not given)")
11.8
>>> result_number("CC12C=CC(=O)C=C1CCC1C2C(O)CC2(C)C1CCC2(O)C(=O)CO (stereo not given)")
8.43
>>> result_number("Nc1cccc2c1CN(C1CCC(=O)NC1=O)C2=O (stereo not given)")
5.24
>>> result_number("NC(=O)N1c2ccccc2CC(O)c2ccccc21 (stereo not given)")
7.19
>>> result_number("Cc1ccc(C(=O)c2cc(O)c(O)c([N+](=O)[O-])c2)cc1")
11.1
>>> result_number("Cn1cnc2[nH]c(=O)[nH]c(=O)c21")
4.44
>>> result_number("CCCC[N+](CCCC)(CCCC)Cc1ccccc1")
9.13
>>> result_number("CCC1(c2ccccc2)C(=O)NCNC1=O")
6.35
>>> result_number("O=P(Oc1ccccc1)(Oc1ccccc1)Oc1cccc(OP(=O)(Oc2ccccc2)Oc2ccccc2)c1")
15.9
>>> result_number("CN(C)CC(c1ccc(O)cc1)C1(O)CCCCC1 (stereo not given)")
5.37

a = O=C(O)CCCCC(=O)O
b = COC(=O)Nc1nc2ccc(Sc3ccccc3)cc2[nH]1
c = CC1(C)CC(O)CC(C)(C)N1CCO
d = CCCCC(CC)COC(=O)C(C#N)=C(c1ccccc1)c1ccccc1 (stereo not given)
e = Nc1nc2c(ncn2C2OC(CO)C(O)C2O)c(=O)[nH]1 (stereo not given)
Challenge: Would you mind ranking these molecules by ascending LC retention time? Form entry: labels listed in requested order.
Response given: c, e, a, b, d

###

test_name: RP, Agilent ZORBAX Eclipse Plus C18, 150 × 2.1 mm, 3.5 µm, 40 °C, 0.3 mL/min, estimated dead time 1.1 min; A: water + 0.1% formic acid; B: acetonitrile + 0.1% formic acid; gradient (min/%B) 0/2 1/2 2/20 16.5/98 22/98
recorded_conditions: stereoisomer not certain
endpoint: LC retention time (min)

>>> result_number("CCCC1CC(C(=O)NC(C(C)O)C2OC(SC)C(O)C(O)C2O)N(C)C1 (centres undefined)")
4.88
>>> result_number("COC(=O)C(Cc1ccccc1)NC(=O)C(N)CC(=O)O (centres undefined)")
5.76

A = Cn1cnc2nc[nH]c2c1=N
B = COC(=O)NN=Cc1c[n+]([O-])c2ccccc2[n+]1[O-]
Challenge: Returns the identifier with the smallest measured LC retention time among A and B . Please identify the chosen entry by its label.
Response given: A

###

test_name: RP, Agilent ZORBAX Eclipse Plus C18, 150 × 2.1 mm, 3.5 µm, 40 °C, 0.3 mL/min, estimated dead time 1.1 min; A: water + 0.1% formic acid; B: acetonitrile + 0.1% formic acid; gradient (min/%B) 0/2 1/2 2/20 16.5/98 22/98
recorded_conditions: stereoisomer not certain
endpoint: LC retention time (min)

These recorded examples may help you get a feel for the data.
>>> result_number("CN(C)CC1CCCCC1(O)c1cccc(O)c1 (configuration not stated)")
5.39
>>> result_number("Cc1ccc(O)c(-n2nc3ccccc3n2)c1")
15.2
>>> result_number("CCOc1cc(CC(=O)NC(CC(C)C)c2ccccc2N2CCCCC2)ccc1C(=O)O (configuration not stated)")
10.3
>>> result_number("COc1cc(-c2oc3cc(O)cc(O)c3c(=O)c2O)ccc1O")
9.42
>>> result_number("C#CC1(O)CCC2C3CCC4=C(CCC(=O)C4)C3CCC21C (configuration not stated)")
11.1
>>> result_number("CC(C(=O)O)c1cccc(Oc2ccccc2)c1 (configuration not stated)")
11.8
>>> result_number("CCN1C=CN(C)C1")
1.34
>>> result_number("C=C(C)C([O-])=NCCC[N+](C)(C)C")
4.7
>>> result_number("CCc1cccc(C)c1N(C(=O)CS(=O)(=O)O)C(C)COC (configuration not stated)")
8.25
>>> result_number("CCCCCCCCCC[N+](C)(C)CCCCCCCC")
12.4

1 = CCCCCCCCCCCCCC[N+](C)(C)Cc1ccccc1
2 = CCCCCCCCCCCCCCCC[N+](C)(C)CCCCCCCCCCCCCCCC
3 = S=c1[nH]c2ccccc2o1
Challenge: Rank the 3 compounds: largest LC retention time first, smallest last. Form entry: labels listed in requested order.
Response given: 2, 1, 3
(2: 18.4 min, 1: 12.8 min, 3: 8.26 min)

A = CCOc1ccc2ccccc2c1C(=O)NC1C(=O)N2C1SC(C)(C)C2C(=O)O (configuration not stated)
B = COCCOCCOCCOCCOC
Challenge: Returns the identifier with the smallest measured LC retention time among A and B . Please identify the chosen entry by its label.
Response given: B
(B: 6.01 min, A: 10.6 min)

P = CCC(C)(C)C(=O)OC1CC(CO)C=C2C=CC(C)C(CCC3CC(O)CC(=O)O3)C21 (configuration not stated)
Q = CC(=O)CCCCn1c(=O)c2c(ncn2C)n(C)c1=O
Challenge: Returns the identifier with the smallest measured LC retention time among P and Q . Please identify the chosen entry by its label.
Response given: Q
(Q: 6.77 min, P: 10.8 min)

1 = CN(C)c1ccc(C=O)cc1
2 = Cc1cn(C2CC(N=[N+]=[N-])C(CO)O2)c(=O)[nH]c1=O (configuration not stated)
Challenge: Returns the identifier with the smallest measured LC retention time among 1 and 2 . Please identify the chosen entry by its label.
Response given: 2
(2: 5.9 min, 1: 8.87 min)
